Record form. Attribute: PBM E-score. Fill in for each entry.
- Target under test: Mot3 (UniProt P54785)
- Sequence: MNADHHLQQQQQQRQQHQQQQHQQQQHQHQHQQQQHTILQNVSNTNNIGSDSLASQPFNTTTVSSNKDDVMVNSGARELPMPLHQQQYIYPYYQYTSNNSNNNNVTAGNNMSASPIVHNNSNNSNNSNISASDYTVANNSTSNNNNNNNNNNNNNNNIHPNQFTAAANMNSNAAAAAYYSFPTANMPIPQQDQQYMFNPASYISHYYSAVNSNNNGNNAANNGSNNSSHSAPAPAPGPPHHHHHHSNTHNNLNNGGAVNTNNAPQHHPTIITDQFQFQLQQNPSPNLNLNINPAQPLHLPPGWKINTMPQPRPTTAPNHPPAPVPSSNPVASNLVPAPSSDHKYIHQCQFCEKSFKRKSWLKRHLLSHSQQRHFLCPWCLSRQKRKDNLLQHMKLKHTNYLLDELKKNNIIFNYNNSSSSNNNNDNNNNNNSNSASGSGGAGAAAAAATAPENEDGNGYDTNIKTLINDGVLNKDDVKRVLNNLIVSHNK
- Method summary: PBM E-score (8-mer binding enrichment) (E-score (-0.5 to 0.5)); higher = stronger / more preferred TF binding
- Experimental setup: protein concentration: 200 nM; construct: GST-full length
Over roughly 33,000 sequences, “E-score (-0.5 to 0.5)” has its median near -0.035; the highest 2% begin near 0.34. The list comes from a sample in which the highest values are over-represented; it also holds close analogues and randomly drawn sequences.
Give bare numbers.

[
  {
    "Seq": "GGTGCCCA",
    "PBM E-score": 0.293
  },
  {
    "Seq": "CGGGAACA",
    "PBM E-score": 0.147
  },
  {
    "Seq": "ACGTGTCT",
    "PBM E-score": 0.14
  },
  {
    "Seq": "ATTACCTG",
    "PBM E-score": 0.336
  },
  {
    "Seq": "CAAGTCGA",
    "PBM E-score": -0.156
  },
  {
    "Seq": "CCGTGTAC",
    "PBM E-score": 0.34
  },
  {
    "Seq": "AAGTGTAT",
    "PBM E-score": 0.117
  },
  {
    "Seq": "CAGAACCC",
    "PBM E-score": -0.0803
  },
  {
    "Seq": "CAGGCTCA",
    "PBM E-score": 0.392
  },
  {
    "Seq": "ACACTGGC",
    "PBM E-score": 0.00843
  }
]

Please give PBM E-score for each item listed below.
1. AACTAGAT
2. CAGCCCGG
3. GAGAAGGC
4. AGGGAACC
5. AGCCTGTA
6. ATGGAACG
7. AGGTTGGA

result:
[0.138, -0.239, 0.258, 0.00909, 0.342, 0.0262, -0.173]

Please give PBM E-score for each item listed below.
1. CCGTGTAG
2. CCTATTAC

result:
1: 0.367; 2: 0.344

Please give PBM E-score for each item listed below.
1. TAGGCTCA
2. AGGTACGC

result:
1: 0.109; 2: 0.444

Please give PBM E-score for each item listed below.
1. CCGTTTCA
2. CCGTGTCG
3. CATTCCGC
4. AGGTGTAG
5. AAGGAACC
6. CTTTGGCC
7. ACGGAACC

result:
-0.123
0.126
-0.146
0.0602
0.462
0.0624
0.0959
